Give measured Ki for each item. Keep answers brief.
Tested System: testes receptor (testis membranes)
Assay Explanation: Displacement of [125I]074(d) from rat testis membranes (Scatchard / displacement binding assay)
Reported Conditions: average Ki, 25° C., 2 hours, for 074(d) the Ki is a Kd
# number only, unit µM dropped from output

Supply measured Ki of CCN1CCC2C(C1)c1ccc(C)cc1C2c1ccc(C)cc1 (centres unmarked) in your reply.
65.6

Supply measured Ki of `CCN1CC[C@H]2[C@H](c3ccc(C(=O)OC)cc3)c3cc(C)ccc3[C@H]2C1` in your reply.
2.7

Supply measured Ki of CCN1CCC2C(C1)c1ccc(C)cc1C2c1ccc(C(=O)OC)cc1 (centres unmarked) in your reply.
207

Supply measured Ki of CCN1CCC2C(C1)c1ccc(C)cc1C2c1ccc(C(=O)O)cc1 (centres unmarked) [RTI-4587-054(d)] in your reply.
0.54

Supply measured Ki of `CCN1CC[C@@H]2[C@@H](c3ccc(C(=O)OC)cc3)c3cc(C)c(I)cc3[C@@H]2C1` in your reply.
67.3

Supply measured Ki of `CCN1CC[C@H]2[C@H](c3ccc(C(=O)OC)cc3)c3cc(C)c(I)cc3[C@H]2C1` in your reply.
0.32

Supply measured Ki of CCN1CCC2C(C1)c1ccc(C)cc1C2c1ccc(C(=O)O)cc1 (centres unmarked) [RTI-4587-054(l)] in your reply.
329
